Data origin: patent US20060292634A1

Target: T1, chicken lysozyme (chicken, UniProt P00698 19-147)
T1 construct: Coated on ELISA plates (100 µg/ml) or immobilized on / passed over Eupergit columns
T1 sequence (P00698 19-147 limits assumed): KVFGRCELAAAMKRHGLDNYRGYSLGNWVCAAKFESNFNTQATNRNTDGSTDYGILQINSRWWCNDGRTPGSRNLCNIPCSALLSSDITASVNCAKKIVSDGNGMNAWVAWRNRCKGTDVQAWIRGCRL
Assay: ELISA, lysozyme-coated well (100 µg/ml), ~50 ng iMab per well, anti-VSV-HRP; urea-purified
Entries and their Absorbtion (450 nm)
Mention the unit after the number when you answer.

Past entries and their recorded results:
{"Binder": "iMab1302 (designed binder, not shown: C-terminal linker, VSV-tag and 6xHis-tag from vector CM126) VVKVVIKPSQNFIENGEDKKFTCRASGYTIGPKCIGWFSQNPEDDSTNVATINMGGGITYYGDSVKERFDIRRDNAKDTSTLSIDDAQPEDAGIYKCAADSTIYASYYECGHGLSTGGYGYDSEATVGVDIFVKLM", "Absorbtion (450 nm)": "0.345 A450"}
{"Binder": "iMab1300 (designed binder, not shown: C-terminal linker, VSV-tag and 6xHis-tag from vector CM126) LQVDIKPSQGEISVGESKFFLCQASGYTIGPCISWFSPNGEKLNMGSSTLTIYNANIDDAGIYKCAADSTIYASYYECGHGLSTGGYGYQSEATVNVKIFQ", "Absorbtion (450 nm)": "0.325 A450"}
{"Binder": "iMab1202 (designed binder, also called iMab1202 (1EJ6); not shown: C-terminal linker, VSV-tag and 6xHis-tag from vector CM126) IVKLVMEKRGNFENGQDCKLTIRASGYTIGPACDGFFCQFPSDDSFSTEDNMGGGITVNDAMKPQFDIRRDNAKGTWTLSMDFQPEGIYEMQCAADSTIYASYYECGHGLSTGGYGYDNPVRLGGFDVDVPDV", "Absorbtion (450 nm)": "0.317 A450"}
{"Binder": "iMab1602 (designed binder, not shown: C-terminal linker, VSV-tag and 6xHis-tag from vector CM126) AVKPVIGSKAPNFGENGDVKTIDRASGYTIGPTCGGVFFQGPTDDSTNVATINMGGGITYYGDSVKETFDIRRDNAKSTRTESYDDNQPEGLTEVKCAADSTIYASYYECGHGLSTGGYGYDVSSRLYGYDILVGTQ", "Absorbtion (450 nm)": "0.357 A450"}
{"Binder": "iMab111 (designed binder, not shown: C-terminal linker, VSV-tag and 6xHis-tag from vector CM126) NVKLVCKGGNFVENDDDLKLTCRAEGYTIGPYCMGWFRQAPNDDSTNVATINMGGGITYYGDSVKERFDIRRDNASNTVTLSMDDLQPEDSAEYNCAGDSTIYASYYECGHGLSTGGYGYDSHYRCQGTDVTVSS", "Absorbtion (450 nm)": "0.42 A450"}

// switching to the query binder
QUERY: Name the recorded Absorbtion (450 nm) for iMab122 (designed binder, not shown: C-terminal linker, VSV-tag and 6xHis-tag from vector CM126) NVKLVEKGGNFVENDDDLKLTCRASGRTFSSRTMGWFRQAPNDDSTNVATIRWNGGSTYYTNYGDSVKERFDIRVDQASNTVTLSMDDLQPEDSAEYNCAGTDIGDGWSGRYDYRGQGTDVTVSS .
RESULT: 0.271 A450
